Biological target: 5-hydroxytryptamine receptor 2C (Rattus norvegicus) (UniProt P08909)
Sequence (P08909 whole entry, looked up): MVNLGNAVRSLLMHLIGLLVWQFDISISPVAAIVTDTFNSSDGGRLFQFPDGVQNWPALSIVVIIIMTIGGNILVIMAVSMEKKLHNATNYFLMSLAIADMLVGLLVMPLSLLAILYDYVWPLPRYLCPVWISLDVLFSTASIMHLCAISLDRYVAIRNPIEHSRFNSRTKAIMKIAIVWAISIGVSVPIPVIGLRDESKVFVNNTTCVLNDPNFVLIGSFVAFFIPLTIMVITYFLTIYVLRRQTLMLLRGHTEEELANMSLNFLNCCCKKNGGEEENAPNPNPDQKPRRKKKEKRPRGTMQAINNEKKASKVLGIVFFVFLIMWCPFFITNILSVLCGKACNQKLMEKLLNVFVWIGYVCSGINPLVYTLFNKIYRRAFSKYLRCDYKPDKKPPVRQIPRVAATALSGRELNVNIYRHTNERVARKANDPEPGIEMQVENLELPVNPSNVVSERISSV
pKi: −log10 of the molar value.
assay_endpoint: pKi

sample_smiles=C[C@H](Nc1ccnc(NCCOc2ccc(F)cc2)c1)c1ccccc1 measured_value=7.82

====

Reported values: Ki for UniProt P34969, one per item.
assay_endpoint: Ki (nM)

compound=C[C@H](Nc1cccc(NCCc2ccccc2)n1)c1ccccc1 assay_endpoint=Ki value_comparator=> measured_value=1000
compound=C[C@H](Nc1ccnc(NCCc2ccccc2)n1)c1ccccc1 assay_endpoint=Ki value_comparator== measured_value=0.6
compound="CC(Nc1nccc(NCCc2ccccc2)n1)c1ccccc1 (racemic)" assay_endpoint=Ki value_comparator== measured_value=6
compound=C[C@H](Nc1cccc(NCCOc2ccccc2)n1)c1ccccc1 assay_endpoint=Ki value_comparator=> measured_value=1000

====

Molecular target: 5-hydroxytryptamine receptor 7 (Homo sapiens, UniProt P34969)
Sequence (P34969 whole entry): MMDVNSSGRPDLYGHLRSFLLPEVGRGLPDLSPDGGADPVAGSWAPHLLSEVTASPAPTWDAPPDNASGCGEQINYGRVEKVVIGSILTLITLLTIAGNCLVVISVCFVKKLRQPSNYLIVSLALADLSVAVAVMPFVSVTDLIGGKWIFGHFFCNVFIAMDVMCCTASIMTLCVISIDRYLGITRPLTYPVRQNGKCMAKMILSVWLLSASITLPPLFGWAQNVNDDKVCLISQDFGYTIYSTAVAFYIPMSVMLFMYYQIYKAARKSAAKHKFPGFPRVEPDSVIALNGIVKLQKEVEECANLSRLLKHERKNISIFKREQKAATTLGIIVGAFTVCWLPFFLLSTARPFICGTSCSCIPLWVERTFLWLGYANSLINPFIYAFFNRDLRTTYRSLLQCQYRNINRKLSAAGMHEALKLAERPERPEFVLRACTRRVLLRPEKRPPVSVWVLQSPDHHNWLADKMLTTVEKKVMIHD
pKi: −log10 of the molar value.
Use 9 as the dividing line for pKi, with the line itself on the YES side and lower values as NO.

molecule="CC(Nc1ccnc(NCCc2ccc(F)cc2)n1)c1ccccc1 (racemic)" assigned_class=NO
molecule=C[C@H](Nc1ccnc(NCCc2ccccc2)c1)c1ccccc1 assigned_class=YES
molecule=C[C@H](Nc1cc(NCCOc2ccc(F)cc2)ccn1)c1ccccc1 assigned_class=YES
molecule=C[C@H](Nc1ccnc(NCCOc2ccccc2)n1)c1ccccc1 assigned_class=NO
molecule=C[C@H](Nc1ccnc(NCCOc2ccccc2)c1)c1ccccc1 assigned_class=YES
molecule=C[C@H](Nc1cncc(NCCc2ccc(F)cc2)c1)c1ccccc1 assigned_class=NO

Sourced from ChEMBL document CHEMBL1138823
